The entries below are paired with their reported MBC.
Test system: C. jejuni Au-50
Experiment: Copper sulfate sensitivity dose–response assay in vitro (MIC/MBC)
Assay type: cell-based
Settings: Campylobacter jejuni, AU50; 0.5 mM CuSO4; read-out: MBC, Au-50 (Table S5)

Q: I'd like to know its MBC. The compound in question is CCOC(=O)C1CCN(CC(=O)Nc2cccc3cccnc23)CC1
Ans: > 5 µg/mL

Q: Requested read-out: MBC. Entry: CN(C)c1ccc(C(=O)Nc2ccc(CN3CCS(=O)(=O)CC3)cc2)cc1
Ans: > 5 µg/mL

Q: Given the compound CCc1ccnc(NS(=O)(=O)c2ccc(C)c(Cl)c2)c1 , what is its reported MBC?
Ans: > 5 µg/mL

* * *

Below are MIC values recorded for C. jejuni Au-45.
Quick note: unit goes after the number.

Before answering, review these 2 worked examples.
>  <compoundStructureString>
CCOC(=O)C1CCN(CC(=O)Nc2cccc3cccnc23)CC1

>  <readoutType>
MIC

>  <result>
5 µg/mL

$$$$
>  <compoundStructureString>
CCc1ccnc(NS(=O)(=O)c2ccc(C)c(Cl)c2)c1

>  <readoutType>
MIC

>  <result>
6.25 µg/mL

$$$$

// switching to the query molecule
Q: # get_value(readout='MIC', item= CCCNC(=S)Nc1cc(OC)cc(OC)c1 )
Ans: 0.31 µg/mL
